biological target: SARS-CoV1 Spike [change] (SARS-CoV-1, UniProt P59594 14-667); assay: Octet BLI, IgG, monovalent
measureName: Kd

| binder | Kd |
| --- | --- |
| A-21.2 (antibody, V domains shown) VH: EVQLVESGGGLVQPGGSLRLSCAASGFTFSRYWMHWVRQAPGKGLVWVSRINSDGSSTTYADSVKGRFTISRDNAKNTLYLQMNSLRAEDTAVYYCARELYYYDSRGAEEGEGWFDPWGQGTLVTVSS VL: QSVLTQPPSVSGAPGQRVTISCTGISSNIGAQYDVHWYQQLPGTAPKLLIYGNSNRPRGVPDRFSASKSGTSAPLAITGLQAEDEADYYCQSSDRSVSGSVFGTGTKVTVL | 7.93 nM |
| A-20.1 (antibody, V domains shown) VH: QVQLVESGGGVVQPGRSLRLSCAASGFTFSNFAMHWVRQAPGKGLEWVAVILYDGINKYYADSVKGRFTISRGNSKNTLSLQMNSLRAEDTAVYYCARAQNYYDRSGTLQLDAFDIWGQGTLVTVSS VL: AIQMTQSPSSLSASVGDRVTITCVASQGIRNDLGWYQQKPGKAPKLLIYEASSLESGVPSRFSGSGSGTDFTLTISSLQPEDFATYYCLQDYNYPLTFGGGTKVEIK | 5.29 nM |

Task: Please look up its Kd: A-21.3 (antibody, V domains shown) VH: EVQLVESGGGLVQPGGSLRLSCAASGFTFRRYWMHWVRQAPGKGLEWVSRINSDGSSTTYADSVEGRFTISRDNAKNTLYLQMNSLRAEDTAVYYCARELYYYDRRGAEEGEGWFDPWGQGTLVTVSS VL: QSVLTQPPSVSGAPGQRVTISCTGISSNIGAEYDVHWYQQLPGTAPKLLIYGNSNRPRGVPDRFSASKSGTSAPLAITGLQAEDEADYYCQVSDRYLSGSVFGTGTKVTVL
Output: 0.893 nM
